Entry source: patent US8916570B2

- tested_target: human A3 adenosine receptor (Homo sapiens)
- Sequence (P0DMS8 whole entry): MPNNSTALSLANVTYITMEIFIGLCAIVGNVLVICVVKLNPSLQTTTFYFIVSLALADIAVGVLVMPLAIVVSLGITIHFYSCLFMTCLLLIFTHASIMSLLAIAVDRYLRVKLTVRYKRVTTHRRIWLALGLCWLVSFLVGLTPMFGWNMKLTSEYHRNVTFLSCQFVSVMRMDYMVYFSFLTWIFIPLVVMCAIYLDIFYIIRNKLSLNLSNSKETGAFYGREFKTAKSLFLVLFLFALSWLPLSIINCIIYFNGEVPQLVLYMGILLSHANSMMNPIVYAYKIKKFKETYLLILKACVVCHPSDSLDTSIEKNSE
- method_notes: [125I]I-AB-MECA binding, human A3 AR, CHO membranes (Table 1)
- condition_set: human
recorded_metric: Selectivity A1/A3
Answers are plain numbers.

>  <molecule>
CNC(=O)C12CC1C(n1cnc3c(NCc4cccc(Cl)c4)nc(C#CCCCC(=O)NCCN)nc31)C(O)C2O (stereo not shown) [Compound 8]

>  <Selectivity A1/A3>
209

$$$$

Working through the 3 molecules below one at a time, give Selectivity A1/A3 for each.
1. CNC(=O)C12CC1C(n1cnc3c(NOC)nc(Cl)nc31)C(O)C2O (stereo not shown) [Compound 21]
2. CNC(=O)C12CC1C(n1cnc3c(NCc4cccc(Cl)c4)nc(C#C[Si](C)(C)C)nc31)C(O)C2O (stereo not shown) [Compound 4]
3. CNC(=O)C12CC1C(n1cnc3c(NCc4cccc(C#CCCCC(=O)NCCN)c4)nc(Cl)nc31)C(O)C2O (stereo not shown) [Compound 10]

Result ::
1. 1.8
2. 160
3. 52
